measuredTarget: NAD-dependent protein deacylase sirtuin-5, mitochondrial (Homo sapiens, UniProt Q9NXA8)
Sequence (Q9NXA8 whole entry): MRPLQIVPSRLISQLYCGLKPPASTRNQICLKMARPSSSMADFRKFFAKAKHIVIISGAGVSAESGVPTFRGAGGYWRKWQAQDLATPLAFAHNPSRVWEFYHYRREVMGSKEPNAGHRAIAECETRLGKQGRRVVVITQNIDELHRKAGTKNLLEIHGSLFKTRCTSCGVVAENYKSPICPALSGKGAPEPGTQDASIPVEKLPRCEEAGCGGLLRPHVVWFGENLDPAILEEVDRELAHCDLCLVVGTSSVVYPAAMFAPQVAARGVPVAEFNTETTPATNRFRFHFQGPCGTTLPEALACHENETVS
experimentNotes: Inhibition of SIRT5 using ZK(suc)A substrate after 1 hr by homogeneous fluorescence assay
conditionDetails: read-out: IC50
pIC50: −log10 of the molar value.
Quick rule for you: pIC50 at 5 or higher means satisfied, lower means not satisfied.

Record "C=CCN1C(=O)/C(=C/c2ccc(-c3cccc(Cl)c3Cl)o2)C(=O)NC1=S" ; criterion: pIC50 no lower than 5. Met?
satisfied

Dear colleague, could you confirm whether "COc1ccc2c(C=C3C(=O)NC(=S)NC3=O)cccc2c1" has pIC50 at or above 5?
not satisfied

Decide: pIC50 of "CC(C)c1ccc(C=C2C(=O)NC(=S)NC2=O)cc1" >= 5?
not satisfied

Does pIC50 meet or surpass 5 for "O=C1NC(=S)NC(=O)C1=Cc1c[nH]c2ccccc12" ?
not satisfied

Record "CN1C(=O)/C(=C/c2ccc(OCc3ccccc3)cc2)C(=O)NC1=S" ; criterion: pIC50 no lower than 5. Met?
not satisfied

New cases:
Hi team, for "CCN1C(=O)/C(=C/c2c[nH]c3ccccc23)C(=O)NC1=S" , is the recorded pIC50 at or above 5?
not satisfied

Please tell me: is the compound "C=CCN1C(=O)/C(=C/c2ccc(OCc3ccccc3)cc2)C(=O)NC1=S" at or over 5 in terms of pIC50?
not satisfied

Check this compound for pIC50 at or above 5: "O=C1NC(=S)NC(=O)C1=Cc1ccc(-c2ccccc2)cc1"
not satisfied

# check: pIC50 of CC(NC(=O)c1ccccc1/N=C/c1c(O)ccc2ccccc12)c1ccccc1 (configuration not stated) is greater than or equal to 5
not satisfied

# check: pIC50 of "O=c1[nH]c(=S)[nH]c(-c2ccccc2)c1Cc1c(O)ccc2ccccc12" is greater than or equal to 5
not satisfied

Entry "CN1C(=O)/C(=C/c2c[nH]c3ccccc23)C(=O)NC1=S" : is its pIC50 no less than 5?
not satisfied

----------
measuredTarget: NAD-dependent protein deacetylase sirtuin-3, mitochondrial (Homo sapiens)
Sequence (Q9NTG7 whole entry): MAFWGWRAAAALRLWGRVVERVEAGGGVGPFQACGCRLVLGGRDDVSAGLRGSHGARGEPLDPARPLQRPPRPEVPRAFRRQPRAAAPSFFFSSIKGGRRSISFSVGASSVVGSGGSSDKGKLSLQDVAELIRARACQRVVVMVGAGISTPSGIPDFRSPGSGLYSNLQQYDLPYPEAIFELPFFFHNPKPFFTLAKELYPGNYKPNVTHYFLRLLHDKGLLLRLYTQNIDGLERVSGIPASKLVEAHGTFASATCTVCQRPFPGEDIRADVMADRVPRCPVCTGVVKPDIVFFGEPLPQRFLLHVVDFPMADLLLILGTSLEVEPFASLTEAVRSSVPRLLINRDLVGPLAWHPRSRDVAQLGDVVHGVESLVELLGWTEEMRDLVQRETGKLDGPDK
experimentNotes: Inhibition of recombinant SIRT3 using ZMAL substrate after 4 hrs by homogeneous fluorescence assay
conditionDetails: read-out: IC50
quantityKind: pIC50
Give bare numbers, as −log10 of the molar value.

Would you mind telling me what pIC50 value was observed for "O=C1NC(=S)NC(=O)C1=Cc1ccc(-c2ccccc2)cc1" ?
4.39

----------
measuredTarget: NAD-dependent protein deacetylase sirtuin-2 (Homo sapiens)
Sequence (Q8IXJ6 whole entry): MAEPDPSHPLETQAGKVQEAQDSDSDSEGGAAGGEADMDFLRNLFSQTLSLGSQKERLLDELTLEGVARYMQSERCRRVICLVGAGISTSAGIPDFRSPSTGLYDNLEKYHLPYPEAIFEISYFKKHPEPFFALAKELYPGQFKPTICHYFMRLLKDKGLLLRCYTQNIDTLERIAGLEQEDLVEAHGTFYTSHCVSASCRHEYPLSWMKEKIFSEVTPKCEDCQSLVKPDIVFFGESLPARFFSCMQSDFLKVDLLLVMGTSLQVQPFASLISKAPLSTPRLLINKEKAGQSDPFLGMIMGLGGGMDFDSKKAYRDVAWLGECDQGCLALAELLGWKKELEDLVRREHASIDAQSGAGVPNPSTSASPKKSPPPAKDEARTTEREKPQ
experimentNotes: Inhibition of recombinant SIRT2 using ZMAL substrate after 4 hrs by homogeneous fluorescence assay
quantityKind: pIC50
Answers are plain numbers, as −log10 of the molar value.

API: value(readout= pIC50, system= NAD-dependent protein deacetylase sirtuin-2 (Homo sapiens), query= "Cc1ccc(C(=O)Nc2ccc(S(=O)(=O)O)c3cc(S(=O)(=O)O)cc(S(=O)(=O)O)c23)cc1NC(=O)c1cccc(NC(=O)Nc2cccc(C(=O)Nc3cc(C(=O)Nc4ccc(S(=O)(=O)O)c5cc(S(=O)(=O)O)cc(S(=O)(=O)O)c45)ccc3C)c2)c1" )
5.96

Param readout= pIC50; system= NAD-dependent protein deacetylase sirtuin-2 (Homo sapiens); entry= "CCN1C(=O)/C(=C/c2ccc(OCc3ccccc3)cc2)C(=O)NC1=S" ; returns value.
4.84

I'm curious: which pIC50 was measured for "O=C1NC(=S)NC(=O)C1=Cc1ccc(OCc2ccc(Br)cc2)cc1" tested on NAD-dependent protein deacetylase sirtuin-2 (Homo sapiens)?
5.47

Test system NAD-dependent protein deacetylase sirtuin-2 (Homo sapiens); read-out pIC50; what value for "CN1C(=O)/C(=C/c2ccc(OCc3ccccc3)cc2)C(=O)NC1=S" ?
5.00

Give NAD-dependent protein deacetylase sirtuin-2 (Homo sapiens) pIC50 for "O=C1NC(=S)NC(=O)C1=Cc1ccc(OCc2ccccc2)cc1"
5.01

Working through the 4 molecules below one at a time, give pIC50 for each.
1. CC(C)c1ccc(C=C2C(=O)NC(=S)NC2=O)cc1
2. COc1ccc2c(C=C3C(=O)NC(=S)NC3=O)cccc2c1
3. O=C1NC(=S)NC(=O)C1=Cc1ccc(-c2cccc(Cl)c2Cl)o1
4. COc1cc(C=C2C(=O)NC(=S)NC2=O)ccc1OCc1ccccc1Cl

4.83
4.93
4.98
5.12

// each molecule listed below needs its pIC50
1. O=C1CC(c2ccccc2)c2c(ccc3cc(Br)ccc23)O1 (configuration not stated)
2. C=CCN1C(=O)/C(=C/c2ccc(-c3cccc(Cl)c3Cl)o2)C(=O)NC1=S
3. O=C1NC(=S)NC(=O)C1=Cc1c[nH]c2ccccc12

1. 6.00
2. 5.01
3. 4.69

----------
Provide the recorded inhibition for the entries that follow.
measuredTarget: NAD-dependent protein deacetylase sirtuin-2 (Homo sapiens)
experimentNotes: Inhibition of recombinant SIRT2 using ZMAL substrate at 50 uM after 4 hrs by homogeneous fluorescence assay

# per-item lookup of inhibition; items listed below
1. CN1C(=O)/C(=C/c2c[nH]c3ccccc23)C(=O)NC1=S
2. CCN1C(=O)/C(=C/c2c[nH]c3ccccc23)C(=O)NC1=S
3. O=C1NC(=S)NC(=O)C1=Cc1cn(Cc2ccccc2)c2ccccc12

20%
10%
20%

----------
Exercise: for every item that follows, state its recorded IC50.
measuredTarget: NAD-dependent protein deacylase sirtuin-5, mitochondrial (Homo sapiens)
experimentNotes: Inhibition of SIRT5 using ZK(suc)A substrate after 1 hr by homogeneous fluorescence assay
conditionDetails: read-out: IC50
One number for each entry, in µM.

Need IC50 of "CCN1C(=O)/C(=C/c2ccc(OCc3ccccc3)cc2)C(=O)NC1=S" , thanks.
12.9

Please give the measured IC50 for this compound: "O=C1NC(=S)NC(=O)C1=Cc1ccc(OCc2ccccc2)cc1"
12.6

Give its IC50 value. Item: "O=C1NC(=S)NC(=O)C1=Cc1ccc(OCc2ccc(Br)cc2)cc1"
6.2

So what does the record say about IC50 for "COc1cc(C=C2C(=O)NC(=S)NC2=O)ccc1OCc1ccccc1Cl" ?
12.4

So what's the measured IC50 for this one? "O=C1NC(=S)NC(=O)C1=Cc1ccc(-c2cccc(Cl)c2Cl)o1"
3.6

***
Query (compound): "O=C1NC(=S)NC(=O)C1=Cc1cn(Cc2ccccc2)c2ccccc12" ; field requested: IC50
16.6
